Each record here notes measured cytotoxicity at 10 µM.
Measurement Notes: Toxicity liver stage against HepG2, at 10uM
Assay type: cell-based
Set-up: test concentration 10 uM, cell line HepG2-A16-CD81EGFP
Condition Context: human, HepG2-A16-CD81EGFP cells; read-out: INHIBITION
Provide only the numeric value, understood in %.

// recorded cytotoxicity at 10 µM for O=C(Nc1nccs1)C1CCCN1Cc1ccccn1 (stereo unspecified) : -20

// recorded cytotoxicity at 10 µM for COc1ccc(Cl)cc1CC(=O)N1CCN(CC(C)(C)O)CC1 : -4.21

// recorded cytotoxicity at 10 µM for O=C(c1cnccn1)N1CCCC(c2cccc(-n3ccnc3)n2)C1 (stereo unspecified) : -9.08

// recorded cytotoxicity at 10 µM for CCOCC1c2c(ncn2C(C)C)CCN1C(=O)C1CC1 (stereo unspecified) : 10.5

// recorded cytotoxicity at 10 µM for CCC(O)CN1CCN(C(=O)c2ccc3c(c2)COC3)CC1 (stereo unspecified) : -6.58

// recorded cytotoxicity at 10 µM for O=C(C1CCOCC1)N1C[C@@H](F)[C@@H](OCc2nc3cc(F)ccc3[nH]2)C1 : -9.9
